Measured values drawn from PubChem BioAssay AID2060623 for this set.

Test system: 227483-062-R1-J1-PDC complex spheroids with HUVEC/MSC, viability
MEASUREMENT NOTES: Anticancer human tumor 227483-062-R1-J1-PDC patient-derived pancreatic carcinoma cell line growth inhibition [CLK]
ASSAY CONDITIONS: second compound 3.16 µM; first compound 1 µM; active compounds read low
MEASUREMENT LABEL: viability, T/C (%)
Lab book: enter the figure in %, no units written.

# COMPOUND, viability, T/C (%)
measured = [
    ("CC(=O)O[C@H]1C(=O)[C@@]2(C)[C@H]([C@H](OC(=O)c3ccccc3)[C@]3(O)C[C@H](OC(=O)[C@H](O)[C@@H](NC(=O)c4ccccc4)c4ccccc4)C(C)=C1C3(C)C)[C@]1(OC(C)=O)CO[C@@H]1C[C@@H]2O + CNC(=O)c1ccc(Nc2nc(OC3CCCC3)c3c(-c4ccc5nc(C)oc5c4)c[nH]c3n2)c(OC)c1", 61.5),
]

Now look at this one.
Task: Let me know recorded viability, T/C for COC1C=CCC(C)C(C)S(=O)(=O)NC(=O)c2ccc3c(c2)N(CC2CCC21)CC1(CCCc2cc(Cl)ccc21)CO3 (configuration not stated) + CN1CCN(c2cc(C(=O)Nc3cc4cc(-c5cnn(C)c5)ccc4cn3)ccn2)CC1 , thanks.
Result: 2.73

###

Tested on: 227483-062-R1-J1-PDC complex spheroids with HUVEC/MSC, viability
MEASUREMENT NOTES: Anticancer human tumor 227483-062-R1-J1-PDC cell line growth inhibition [CLK];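 also: spheroids exposed to compounds for seven days before readout; percent of DMSO vehicle control luminescence as 100% viability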
ASSAY CONDITIONS: second compound 0.316 µM; first compound 0.0316 µM; active compounds read low
Description: A high-throughput screen of multi-cell type tumor spheroids was designed to identify active combinations of […] and targeted small molecules. Complex spheroids include a stromal component modeled by human endothelial cells (HUVEC) and fibroblasts modeled by human mesenchymal stem cells (MSCs). […] Compounds. […] If the clinical Cmax for an agent had not been determined, the highest concentration tested was 10 microM. […]
Returns: string. Value is 1.0 if measured viability, T/C is below 60%, and 0.0 if it is greater than or equal to it.

Worked cases, answers included:
# COMPOUND, CAT
records = [
    ("Nc1ccccc1NC(=O)c1ccc(CNC(=O)OCc2cccnc2)cc1 + CNC(=O)c1ccc(Nc2nc(OC3CCCC3)c3c(-c4ccc5nc(C)oc5c4)c[nH]c3n2)c(OC)c1", 0.0),
    ("O=C(c1cc(Cc2n[nH]c(=O)c3ccccc23)ccc1F)N1CCN(C(=O)C2CC2)CC1 + CNC(=O)c1ccc(Nc2nc(OC3CCCC3)c3c(-c4ccc5nc(C)oc5c4)c[nH]c3n2)c(OC)c1", 0.0),
]

Task: Could you please tell me whether viability, T/C recorded for C#Cc1c(F)ccc2cc(O)cc(-c3ncc4c(N5CC6CCC(C5)N6)nc(OCC56CCCN5CC(F)C6)nc4c3F)c12 (stereo not given) + CN1CCN(c2cc(C(=O)Nc3cc4cc(-c5cnn(C)c5)ccc4cn3)ccn2)CC1 is less than 60%?
Result: 1.0

Task: # check: viability, T/C < 60% for CC1(C)CCC(CN2CCN(c3ccc(C(=O)NS(=O)(=O)c4ccc(NCC5CCOCC5)c([N+](=O)[O-])c4)c(Oc4cnc5[nH]ccc5c4)c3)CC2)=C(c2ccc(Cl)cc2)C1 + CN1CCN(c2cc(C(=O)Nc3cc4cc(-c5cnn(C)c5)ccc4cn3)ccn2)CC1
Result: 1.0

Task: Consider the compound COC1C=CCC(C)C(C)S(=O)(=O)NC(=O)c2ccc3c(c2)N(CC2CCC21)CC1(CCCc2cc(Cl)ccc21)CO3 (stereo not given) + CN1CCN(c2cc(C(=O)Nc3cc4cc(-c5cnn(C)c5)ccc4cn3)ccn2)CC1 . Is its viability, T/C strictly less than 60%?
Result: 1.0

Task: Please determine if COc1ccc([C@@H](O)c2cc(-c3ncnc4cc(N5CCOCC5)ccc34)c(F)cc2Cl)nn1 + CN1CCN(c2cc(C(=O)Nc3cc4cc(-c5cnn(C)c5)ccc4cn3)ccn2)CC1 is below 60% in terms of viability, T/C.
Result: 1.0
